I'd appreciate it if you could supply half-life values for the items below.
# Experiment: In vivo pharmacokinetics in mouse pancreas, liver and kidney after i.p. bolus
# Test parameters: mouse, liver, ip, 25 umol/kg; elimination half-life; mice, 25 μmol/kg i.p.; read-out: t1/2β, liver
Provide only the numeric value, understood in min.

Value of half-life reported for the molecule COc1cc(C=CC(=O)NCc2cccc(CC(N)C(=O)O)c2)ccc1O (stereo not drawn) [derivative 1] is 11.7

Value of half-life reported for the molecule COc1cc(C=CC(=O)O)ccc1O [ferulic acid, 4-hydroxy-3-methoxycinnamic acid] is 11.2

Value of half-life reported for the molecule COc1cc(/C=C/C(=O)Nc2cccc(C[C@H](N)C(=O)O)c2)ccc1O [derivative 2] is 13.1
